# Test system: Aspergillus niger
# method summary: Antifungal activity against Aspergillus niger ATCC 9029
# Assay type: functional

| compound | MFC |
| --- | --- |
| O=C1C=CC(O)N1CCc1ccccc1 (stereo not given) | > 250 µg/mL |
| CC1=CC(O)N(CCc2ccccc2)C1=O (stereo not given) | > 250 µg/mL |
| O=C(O)/C=C\C(=O)NCc1ccccc1 | > 250 µg/mL |
| CC1=CC(=O)N(CCCCc2ccccc2)C1=O | 125 µg/mL |
| CCN1C(=O)C=CC1=O [N-ETHYLMALEIMIDE] | 15.6 µg/mL |
| CC1=C(C)C(=O)N(CCCCc2ccccc2)C1=O | > 250 µg/mL |
| CC1=CC(=O)N(CCCc2ccccc2)C1O (stereo not given) | > 250 µg/mL |
| O=C1C=CC(=O)N1CCc1ccccc1 | 15.6 µg/mL |
| O=C1CCC(=O)N1CCCc1ccccc1 | > 250 µg/mL |
| O=C1C(c2ccccc2)=C(c2ccccc2)C(=O)N1CCc1ccccc1 | > 250 µg/mL |
